Molecular target: iPHF (human, UniProt P10636)
Sequence (P10636 2-758): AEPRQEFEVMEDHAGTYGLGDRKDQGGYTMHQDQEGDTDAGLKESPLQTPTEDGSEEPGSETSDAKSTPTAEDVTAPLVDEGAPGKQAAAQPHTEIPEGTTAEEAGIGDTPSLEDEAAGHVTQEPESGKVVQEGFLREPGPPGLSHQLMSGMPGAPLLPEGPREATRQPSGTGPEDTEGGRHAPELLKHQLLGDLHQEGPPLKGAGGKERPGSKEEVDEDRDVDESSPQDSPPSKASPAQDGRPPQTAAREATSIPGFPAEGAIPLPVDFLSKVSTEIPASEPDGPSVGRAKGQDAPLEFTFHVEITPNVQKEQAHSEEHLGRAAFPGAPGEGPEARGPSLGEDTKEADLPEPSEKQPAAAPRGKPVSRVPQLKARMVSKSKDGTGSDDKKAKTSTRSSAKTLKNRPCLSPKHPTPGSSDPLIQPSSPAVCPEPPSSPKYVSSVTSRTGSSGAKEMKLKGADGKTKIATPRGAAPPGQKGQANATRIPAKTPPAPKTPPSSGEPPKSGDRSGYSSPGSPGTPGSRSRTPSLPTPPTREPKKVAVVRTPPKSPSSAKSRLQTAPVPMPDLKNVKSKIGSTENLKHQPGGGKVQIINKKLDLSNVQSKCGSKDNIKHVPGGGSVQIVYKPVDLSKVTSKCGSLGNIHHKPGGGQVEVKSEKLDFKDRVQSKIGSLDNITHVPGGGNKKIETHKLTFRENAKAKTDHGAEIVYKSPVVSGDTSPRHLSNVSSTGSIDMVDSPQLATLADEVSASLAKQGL
Assay: SPR
Listing of entries alongside the reported Kd.
Reply numerically in nM, unit not repeated.

- Ab6 (antibody, V domains shown, immunopurified paired helical filament tau, hyperphosphorylated) VH: QVQLVESGAEVKKPGASVKVSCKASGFTFTRYWMHWVKERPGHGLEWMGNINPNNGGTDFNEKFKNRVTITVHKSASTAYMELSSLRSEDTAVYYCARGTGTGAMDYWGQGTTVTVSS VL: DIVMTQSPLSLSVTPGQPASISCRSSQSLVHNNGITYLYWYLQKPGQSPQLLIYRVSNRFSGVPDRFSGSGSGTDFTLKISRVEAEDVGVYYCFQGTHVPRTFGQGTKVEIK: 0.0391
- Ab7 (antibody, V domains shown, immunopurified paired helical filament tau, hyperphosphorylated) VH: QVQLVQSGAEVKKPGASVKVSCKASGFTFTRYWMHWVRERPGHGLEWIGNINPNNGGTDFNEKFKNRVTMTVHKSISTAYMELSSLRSDDSAVYYCARGTGTGAMDYWGQGTLVTVSS VL: DVVMTQSPLSLPVTLGQPASISCRSSQSLVHNNGITYLYWYQQRPGQSPRLLIYRVSNRFSGVPDRFSGSGSGTDFTLKISRVEAEDVGVYYCFQGTHVPRTFGQGTKLEIK: 0.0334

Then there is this binder:
Looking up Ab2 (antibody, V domains shown, immunopurified paired helical filament tau, hyperphosphorylated) VH: QVQLVESGAEVKKPGASVKVSCKASGFTFTRYWMHWVKERPGHGLEWMGNINPNNGGTDFNEKFKNRVTITVHKSASTAYMELSSLRSEDTAVYYCARGTGTGAMDYWGQGTTVTVSS VL: DVVMTQSPLSLPVTLGQPASISCRSSQSLVHNNGITYLYWYQQRPGQSPRLLIYRVSNRFSGVPDRFSGSGSGTDFTLKISRVEAEDVGVYYCFQGTHVPRTFGQGTKLEIK , I found its Kd recorded as 0.0293
